Where these numbers come from: ChEMBL document CHEMBL3885881

# Organism: Rattus norvegicus
# methodNotes: DrugMatrix - Regimen: Daily Repeat
# Type: toxicity, organism-based, Sprague-Dawley
# Set-up: regimen Daily Repeat, gender Male, age 6-8 weeks
# protocolConditions: in vivo, po, 0 mg/kg, 120 h, tissue Blood, route oral GAVAGE, dose level Control, time 5 day, vehicle .5 % CMC
measuredParameter: EOSINOPHIL (%)
Field format: number, assumed %, no unit text.

Known EOSINOPHIL results, listed for orientation:
[
  {
    "compound": "Brc1ccccc1",
    "EOSINOPHIL, %": 0
  },
  {
    "compound": "C[C@]12CCC(=O)C=C1CC[C@@H]1[C@@H]2C(=O)C[C@@]2(C)[C@H]1CC[C@]2(O)C(=O)CO",
    "EOSINOPHIL, %": 0.43
  },
  {
    "compound": "COC(=O)c1ccc(O)cc1",
    "EOSINOPHIL, %": 0.17
  },
  {
    "compound": "CC[C@H]1OC(=O)[C@H](C)[C@@H](O[C@H]2C[C@@](C)(OC)[C@@H](O)[C@H](C)O2)[C@H](C)[C@@H](O[C@@H]2O[C@H](C)C[C@H](N(C)C)[C@H]2O)[C@](C)(O)C[C@@H](C)/C(=N\\OCOCCOC)[C@H](C)[C@@H](O)[C@]1(C)O",
    "EOSINOPHIL, %": 0.43
  },
  {
    "compound": "CC1(C)[C@H]2CC[C@]1(C)C(=O)C2 [(-)-CAMPHOR]",
    "EOSINOPHIL, %": 1
  }
]

Task: Output measured EOSINOPHIL for this item: "CN1CCC[C@@H]1CCO[C@](C)(c1ccccc1)c1ccc(Cl)cc1"
Output: 1

Task: Output measured EOSINOPHIL for this item: "NCC(=O)O"
Output: 0.17

###

# Organism: Rattus norvegicus
# methodNotes: DrugMatrix - Regimen: Daily Repeat
# Format: toxicity, organism-based, Sprague-Dawley
# Set-up: regimen Daily Repeat, gender Male, age 6-8 weeks
# protocolConditions: in vivo, po, 10 mg/kg, 72 h, tissue Plasma, route oral GAVAGE, dose level Low, time 3 day, vehicle .5 % CMC
measuredParameter: CHLORIDE (MEQ/L)
Field format: number, assumed MEQ/L, no unit text.

[
  {
    "compound": "O=C1CN=C(c2ccccc2)c2cc([N+](=O)[O-])ccc2N1",
    "unitText": "MEQ/L",
    "CHLORIDE": 103
  },
  {
    "compound": "NS(=O)(=O)c1cc2c(cc1Cl)NCNS2(=O)=O [HYDROCHLOROTHIAZIDE]",
    "unitText": "MEQ/L",
    "CHLORIDE": 103
  }
]

Proceeding to the next compound to report its CHLORIDE.
Task: Output measured CHLORIDE for this item: CC(=O)O[C@]1(C(C)=O)CC[C@H]2[C@@H]3C=C(Cl)C4=CC(=O)CC[C@]4(C)[C@H]3CC[C@@]21C [CHLORMADINONE ACETATE]
Output: 101

###

CHLORIDE listing for selected compounds.
# Species: Rattus norvegicus
# methodNotes: DrugMatrix - Regimen: Daily Repeat
# Type: toxicity, organism-based, Sprague-Dawley
# Set-up: regimen Daily Repeat, gender Male, age 6-8 weeks
# protocolConditions: in vivo, po, 0 mg/kg, 120 h, tissue Plasma, route oral GAVAGE, dose level Control, time 5 day, vehicle 100 % WATER
Field format: number, assumed MEQ/L, no unit text.

Task: Output measured CHLORIDE for this item: "Cc1cc(NS(=O)(=O)c2ccc(N)cc2)no1"
Output: 104.17

Task: Output measured CHLORIDE for this item: "NNC(=O)c1ccncc1"
Output: 103.83

Task: Output measured CHLORIDE for this item: "CNCCC=C1c2ccccc2CCc2ccccc21"
Output: 101.5

Task: Output measured CHLORIDE for this item: "O=C1NC(=O)C(c2ccccc2)(c2ccccc2)N1"
Output: 101.5

Task: Output measured CHLORIDE for this item: "CC(C)(S)[C@@H](N)C(=O)O"
Output: 98.33

Task: Output measured CHLORIDE for this item: "Cn1cnc([N+](=O)[O-])c1Sc1ncnc2nc[nH]c12"
Output: 98

###

# Species: Rattus norvegicus
# methodNotes: DrugMatrix - Regimen: Daily Repeat
# Assay type: toxicity, organism-based, Sprague-Dawley
# Parameters: regimen Daily Repeat, gender Male, age 6-8 weeks
# protocolConditions: in vivo, po, 0 mg/kg, 72 h, tissue Plasma, route oral GAVAGE, dose level Control, time 3 day, vehicle .5 % CMC
Please mark Y if the recorded TOTAL BILIRUBIN is equal to or greater than 0.2 mg/dL, and N if it falls below.

Solved entries (count: 10):
[
  {
    "molecule": "CCOC(=O)OC(C)OC1=C(C(=O)Nc2ccccn2)N(C)S(=O)(=O)c2ccccc21 (centres undefined) [AMPIROXICAM]",
    "assignedLabel": "N"
  },
  {
    "molecule": "O=C1CCc2cc(OCCCCc3nnnn3C3CCCCC3)ccc2N1 [CILOSTAZOL]",
    "assignedLabel": "Y"
  },
  {
    "molecule": "CC(C)[C@H](N)C(=O)OCCOCn1cnc2c(=O)[nH]c(N)nc21 [VALACYCLOVIR]",
    "assignedLabel": "N"
  },
  {
    "molecule": "NCC(=O)O [GLYCINE]",
    "assignedLabel": "Y"
  },
  {
    "molecule": "CCc1cccc2c3c([nH]c12)C(CC)(CC(=O)O)OCC3 (centres undefined) [ETODOLAC]",
    "assignedLabel": "Y"
  },
  {
    "molecule": "CC1(C)[C@H]2CC[C@]1(C)C(=O)C2 [(-)-CAMPHOR]",
    "assignedLabel": "N"
  },
  {
    "molecule": "C[C@]12CCC(=O)C=C1CC[C@@H]1[C@@H]2C(=O)C[C@@]2(C)[C@H]1CC[C@]2(O)C(=O)CO [CORTISONE]",
    "assignedLabel": "Y"
  },
  {
    "molecule": "C=C1CC[C@H](O)C/C1=C/C=C1\\CCC[C@]2(C)[C@@H]([C@H](C)/C=C/[C@H](C)C(C)C)CC[C@@H]12 [ERGOCALCIFEROL]",
    "assignedLabel": "N"
  },
  {
    "molecule": "CC[C@H]1OC(=O)[C@H](C)[C@@H](O[C@H]2C[C@@](C)(OC)[C@@H](O)[C@H](C)O2)[C@H](C)[C@@H](O[C@@H]2O[C@H](C)C[C@H](N(C)C)[C@H]2O)[C@](C)(O)C[C@@H](C)/C(=N\\OCOCCOC)[C@H](C)[C@@H](O)[C@]1(C)O [ROXITHROMYCIN]",
    "assignedLabel": "Y"
  },
  {
    "molecule": "CN1CCC[C@@H]1CCO[C@](C)(c1ccccc1)c1ccc(Cl)cc1 [CLEMASTINE]",
    "assignedLabel": "N"
  }
]

Task: Tell me whether TOTAL BILIRUBIN is at least 0.2 mg/dL here: COc1c(C)c2c(c(O)c1C/C=C(\C)CCC(=O)OCCN1CCOCC1)C(=O)OC2 [MYCOPHENOLATE MOFETIL]
Output: N

Task: Tell me whether TOTAL BILIRUBIN is at least 0.2 mg/dL here: Brc1ccccc1 [BROMOBENZENE]
Output: N

###

# Species: Rattus norvegicus
# methodNotes: DrugMatrix - Regimen: Daily Repeat
# Assay type: toxicity, organism-based, Sprague-Dawley
# Set-up: regimen Daily Repeat, gender Male, age 6-8 weeks
# protocolConditions: in vivo, po, 0 mg/kg, 120 h, tissue Plasma, route oral GAVAGE, dose level Control, time 5 day, […]
LACTATE DEHYDROGENASE listing for selected compounds.
Field format: number, assumed u/L, no unit text.

Known LACTATE DEHYDROGENASE results, listed for orientation:
[
  {
    "compound": "CC1=C(/C=C/C(C)=C/C=C/C(C)=C\\C(=O)O)C(C)(C)CCC1",
    "measuredParameter": "LACTATE DEHYDROGENASE",
    "unitText": "u/L",
    "value": 111.5
  },
  {
    "compound": "COCc1c(C(C)C)nc(C(C)C)c(/C=C/[C@@H](O)C[C@@H](O)CC(=O)O)c1-c1ccc(F)cc1",
    "measuredParameter": "LACTATE DEHYDROGENASE",
    "unitText": "u/L",
    "value": 229.17
  }
]

Task: Output measured LACTATE DEHYDROGENASE for this item: "Cn1cnc([N+](=O)[O-])c1Sc1ncnc2nc[nH]c12"
Output: 118

Task: Output measured LACTATE DEHYDROGENASE for this item: CC(C)n1c(/C=C/C(O)CC(O)CC(=O)O)c(-c2ccc(F)cc2)c2ccccc21 (stereo not given)
Output: 83.5

Task: Output measured LACTATE DEHYDROGENASE for this item: "Oc1c(Cl)cc(Cl)cc1Sc1cc(Cl)cc(Cl)c1O"
Output: 83.5
